- Test system: HOP-92 NSCLC
- Assay method text: NCI tumour cell line growth inhibition, 48 h
Property measured: TGI

Observe how each entry below is paired with its result.
O=C(c1ccccc1)N1CCC(Nc2cccnc2)O1 (configuration not stated); > 100 µM
COc1cc(S(=O)(=O)Nc2ccc(-c3csc(/N=C\c4cccc(Oc5ccccc5)c4)n3)cc2)ccc1Cl; 58.6 µM
CCOC(=O)n1ccc2c(C(=O)OC)c(C(=O)OC)cc(/C(=C/C(=O)OC)C(=O)OC)c21; > 100 µM
O=C(Cn1c2c(c3ccccc31)CCCC2)N1CCOCC1; > 100 µM
N#CCc1ccccc1/C(C#N)=C1/OC(=N)C(c2ccccc2CC#N)C1=O (configuration not stated); > 100 µM

Looking up `CC(C)(C)[Si](C)(C)O/N=C\c1cccc(O[Si](C)(C)C(C)(C)C)c1` , I found its TGI recorded as 28.8 µM

Looking up `COc1cccc(C=C(C#N)C#N)c1OC` , I found its TGI recorded as > 100 µM

Looking up CC(C)C(=O)CC(c1ccc(Br)cc1)N1N=C(C(C)C)CC1c1ccc(Br)cc1 (configuration not stated) , I found its TGI recorded as > 100 µM

---

- System: OVCAR-4 ovarian
- Assay method text: NCI tumour cell line growth inhibition, 48 h
Property measured: TGI

Observe how each entry below is paired with its result.
CN(CCCN1CCCC1)CCCN(C)C(=O)Cc1ccc(Cl)c(Cl)c1; > 96.1 µM
NC(=S)N/N=C1/C(=O)N(c2ccccc2)C(=O)C1C(=O)Nc1ccccc1 (stereo not drawn); > 100 µM
COc1ccc(-n2nnc3c(C#N)c(C)c(-c4ccccc4)n3c2=O)cc1; > 100 µM
COc1cc([N+](=O)[O-])cc2c1NC(=O)C2(C)SC (stereo not drawn); > 100 µM
CC1=CC[C@@H]2C(=O)C=CC=C[C@H]12.[C-]#[O+].[C-]#[O+].[C-]#[O+].[Fe]; > 100 µM
C=CC(=O)OCCCS(=O)(=O)[O-].C=CC(=O)OCCCS(=O)(=O)[O-].NC1CCCCC1N.[Pt+4]; > 25 µM

// switching to the query compound
Looking up `CS(=O)(=O)Nc1ccc(NCc2cnc3ccc4[nH]cccc4c23)cc1` , I found its TGI recorded as 78.4 µM

---

- Test system: PC-3 prostate
- Assay method text: NCI tumour cell line growth inhibition, 48 h
Property measured: TGI

Observe how each entry below is paired with its result.
O=C(O)c1ccccc1C(=O)Nc1cc2c(cc1Br)-c1ccccc1C2=O; > 100 µM
COc1ccc(OC)c(-c2nc3sc(C)cn3c2/C=C2\C(=O)N(C)c3ccccc32)c1; > 100 µM

Looking up `CCC1=NC(N/N=C/c2ccco2)=N/C1=C\c1ccco1` , I found its TGI recorded as > 100 µM

Looking up `COc1cc2cc[n+](C)c(Cc3ccc(Oc4cc(Cc5c6cc(OC)c(OC)cc6cc[n+]5C)ccc4OC)cc3)c2cc1OC` , I found its TGI recorded as > 100 µM

Looking up CN1C(CC(O)c2ccccc2)CCCC1CC(O)(c1ccccc1)c1ccccc1 (stereo unspecified) , I found its TGI recorded as 34.7 µM

Looking up COC(=O)C(Cc1ccccc1)NP(=O)(O)OCC1OC(n2ccc(N)nc2=O)C(O)C1O (stereo unspecified) , I found its TGI recorded as > 100 µM

Looking up `COC(=O)C[C@@H]1CC=CC(=O)/C1=C(O)/C=C/c1ccccc1` , I found its TGI recorded as 3.76 µM

Looking up COc1cc([N+](=O)[O-])cc2c1NC(=O)C2(C)SC (stereo unspecified) , I found its TGI recorded as > 100 µM

Looking up CCC1C[N+]2=C(c3cc(OC)c(OC)cc3CC2)c2c1cc1n2CCc2cc(OC)c(OC)cc2-1 (stereo unspecified) , I found its TGI recorded as 33.1 µM

Looking up `Nc1csc(-c2scc3c2OCCO3)c1N` , I found its TGI recorded as 62.5 µM

Looking up `O=C1c2ccccc2-c2c1c1ccc([N+](=O)[O-])cc1c(=O)n2CCN1CCOCC1` , I found its TGI recorded as > 100 µM

Looking up `CCOC(=O)n1ccc2c(C(=O)OC)c(C(=O)OC)cc(/C(=C/C(=O)OC)C(=O)OC)c21` , I found its TGI recorded as > 100 µM
